System: E. coli colonies that became resistant to CHL after CIP treatment
Format: cell-based
test conditions: colony 2; plates with 2× MIC after 24 h on LB without selection
property label: Antibiotic resistance

[H]/N=C(/N)N[C@H]1[C@H](O)[C@@H](O)[C@H](O[C@@H]2O[C@@H](C)[C@](O)(C=O)[C@H]2O[C@@H]2O[C@@H](CO)[C@H](O)[C@@H](O)[C@@H]2NC)[C@@H](N/C(N)=N\[H])[C@@H]1O No
CC1(C)S[C@@H]2[C@H](NC(=O)[C@H](N)c3ccccc3)C(=O)N2[C@H]1C(=O)O No
Oc1cc(Cl)ccc1Oc1ccc(Cl)cc1Cl No
O=C(N[C@H](CO)[C@H](O)c1ccc([N+](=O)[O-])cc1)C(Cl)Cl No

###

Test system: E. coli colonies that became resistant to CHL after CIP treatment
Assay type: cell-based
test conditions: colony 17 (second line so numbered, r21); plates with 2× MIC after 24 h on LB without selection
property label: Antibiotic resistance

CC1(C)S[C@@H]2[C@H](NC(=O)[C@H](N)c3ccccc3)C(=O)N2[C@H]1C(=O)O No
O=C(N[C@H](CO)[C@H](O)c1ccc([N+](=O)[O-])cc1)C(Cl)Cl Yes
Oc1cc(Cl)ccc1Oc1ccc(Cl)cc1Cl No
[H]/N=C(/N)N[C@H]1[C@H](O)[C@@H](O)[C@H](O[C@@H]2O[C@@H](C)[C@](O)(C=O)[C@H]2O[C@@H]2O[C@@H](CO)[C@H](O)[C@@H](O)[C@@H]2NC)[C@@H](N/C(N)=N\[H])[C@@H]1O No
